| MOLECULE | melting point |
| --- | --- |
| Cc1cccc2c1nc1n2CC(CO)Oc2c(Cl)cccc2-1 (stereo not shown) | 186.5 to 188 °C |
| CC(C)(C)C1Cn2c(nc3ccccc32)-c2ccccc2O1 (stereo not shown) | 149 to 150 °C |
| Cc1cccc2c1nc1n2CC(C(C)(C)C)Oc2c(Cl)cccc2-1 (stereo not shown) | 191 to 192 °C |
| Cc1ccc(S(=O)(=O)OCC2Cn3c(nc4ccccc43)-c3ccccc3O2)cc1 (stereo not shown) | 165.5 to 166.5 °C |
| Cc1ccc(S(=O)(=O)OCC2Cn3c(nc4c(C)cccc43)-c3cccc(Cl)c3O2)cc1 (stereo not shown) | 168 to 169 °C |
| OCC1Cn2c(nc3ccccc32)-c2ccccc2O1 (stereo not shown) | 142 to 143.5 °C |
| CC(C)(C)C1Cn2c(nc3c(C4OCCO4)cccc32)-c2ccccc2O1 (stereo not shown) | 200 to 201 °C |
